Here the recorded inhibition is given for each entry.
# study-system: Phosphatidylinositol 4,5-bisphosphate 3-kinase catalytic subunit delta isoform (Homo sapiens)
# method-notes: Inhibition of PI3Kdelta (unknown origin) at 200 nM by ADP-Glo kinase assay relative to control
Report the figure along with its unit, number first.

Use the examples below as a reference point.
Cn1c(=O)n(-c2ccc(C(C)(C)C#N)cc2)c2c3cc(-c4cnc5ccccc5c4)ccc3ncc21 [DACTOLISIB]; 66.3%
C=CC(=O)Nc1cccc(Oc2ncnc3ccc(-c4cnc5ccccc5c4)cc23)c1; 29.5%

Input line: Output measured inhibition for this item: C=CC(=O)Nc1cccc(Nc2ncnc3ccc(-c4ccc(F)nc4)cc23)c1
Output line: 46.6%
